System: SK-N-BE (2) cells
protocolText: MTT cell viability assay, SK-N-BE (2)
Assay type: cell-based
measurementContext: Homo sapiens, SKNBE2, NB cell line, 72 h
experimentalReadout: IC50 (µM)

Field: example entries. Status: answers known.
molecule: CCC(C)(C)C(=O)O[C@H]1C[C@@H](C)C=C2C=C[C@H](C)[C@H](CC[C@@H]3C[C@@H](O)CC(=O)O3)[C@H]21
IC50 (µM): 10.5
//
molecule: CC(C)n1c(/C=C/C(O)CC(O)CC(=O)O)c(-c2ccc(F)cc2)c2ccccc21 (stereo not shown)
IC50 (µM): 8.41

[1] CC(=O)O[C@H]1CC[C@@]2(C)C(=CC[C@@H]3[C@@H]2CC[C@]2(C)C(c4cccnc4)=CC[C@@H]32)C1 [Abiraterone acetate]
[2] CC(C)c1nc(N(C)S(C)(=O)=O)nc(-c2ccc(F)cc2)c1/C=C/[C@@H](O)C[C@@H](O)CC(=O)O
// query Lab log: flag the item ( 1 or 2 ) with the smaller IC50 figure. Provide the label of your selected option as the answer.
// result 1
(1: 9.86 µM, 2: 67.6 µM)
